Assay: Fluorescence anisotropy (FA) assay of peptide–PSA binding
Parameters: species or system Escherichia coli
Details: FA titration; N-acetylated, C-terminally TAMRA-labelled peptide 20 nM; CA 0–1500 μM; PBS pH 7.4 (10 mM phosphate, 100 mM NaCl); 3 h, ~20 °C; four-parameter logistic fit; at least two independent experiments, at least triplicate; * = accuracy likely poor (SE > KD)
Where a SMILES comes first, the peptide text is derived from it.
Give measured pKd for each item. Keep answers brief.
Convention used: pKd is expressed as -log10 of the molar concentration.

Lab book: pKd of CC(=O)N[C@@H](Cc1ccccc1)C(=O)N[C@@H](CCCCN)C(=O)NCC(=O)N[C@@H](CCCNC(=N)N)C(=O)N[C@H](C(=O)N[C@@H](CO)C(=O)N1CCC[C@H]1C(=O)N[C@@H](CCCCN)C(=O)N[C@H](C(=O)NCC(=O)N[C@@H](C)C(=O)N1CCC[C@H]1C(=O)N[C@H](C(=O)N[C@@H](C)C(=O)N[C@H](C(N)=O)[C@@H](C)O)C(C)C)[C@@H](C)O)[C@@H](C)O [I-P24] (Ac-FKGRTSPKTGAPVAT-NH2) noted as 3.28

Lab book: pKd of CC[C@H](C)[C@H](NC(C)=O)C(=O)N[C@@H](Cc1ccc(O)cc1)C(=O)N1CCC[C@H]1C(=O)NCC(=O)N[C@@H](CO)C(=O)NCC(=O)N[C@@H](CC(N)=O)C(=O)N[C@H](C(=O)N[C@@H](CCCCN)C(=O)N[C@@H](Cc1ccc(O)cc1)C(=O)N[C@@H](CC(N)=O)C(=O)N[C@@H](CCC(=O)O)C(=O)N[C@@H](CCCCN)C(=O)N[C@@H](Cc1ccccc1)C(=O)N[C@@H](CCCCN)C(N)=O)[C@@H](C)O [II-P76] (Ac-IYPGSGNTKYNEKFK-NH2) noted as 2.89

Lab book: pKd of CC(=O)N[C@@H](CCCCN)C(=O)N[C@@H](CC(=O)O)C(=O)N1CCC[C@H]1C(=O)N[C@@H](CO)C(=O)N[C@@H](Cc1ccc(O)cc1)C(=O)N[C@@H](CO)C(=O)N[C@@H](CC(C)C)C(=O)N[C@@H](CCC(N)=O)C(=O)N[C@H](C(=O)N[C@@H](CCC(N)=O)C(=O)N[C@@H](CCCNC(=N)N)C(=O)N[C@@H](CCC(N)=O)C(=O)N[C@H](C(=O)N1CCC[C@H]1C(=O)N[C@H](C(N)=O)C(C)C)C(C)C)C(C)C [I-P2] (Ac-KDPSYSLQVQRQVPV-NH2) noted as 3.39

Lab book: pKd of CC(=O)N[C@@H](CC(N)=O)C(=O)N[C@@H](CCCNC(=N)N)C(=O)N[C@H](C(=O)N[C@H](C(=O)N[C@@H](CC(C)C)C(=O)N[C@@H](CCCNC(=N)N)C(=O)N[C@@H](CC(N)=O)C(=O)N[C@@H](CC(C)C)C(=O)NCC(=O)N[C@@H](CC(N)=O)C(=O)NCC(=O)N[C@H](C(=O)N[C@@H](CO)C(=O)N[C@@H](CC(C)C)C(=O)N1CCC[C@H]1C(N)=O)[C@@H](C)O)C(C)C)[C@@H](C)O [II-P336] (Ac-NRTVLRNLGNGTSLP-NH2) noted as 3.24
